# procedure.text: Stability in rat hepatocytes assessed as half life
# Type: ADME, cell-based, Hepatocyte
metric: half-life (min)

1. CC(C)n1nnnc1[C@@H](c1ccccc1F)N1CCN(c2cccc(Cl)c2)CC1
2. CC(C)n1nnnc1[C@H](c1ccccc1F)N1CCN(c2cccc(Cl)c2)CC1
### Prompt half-life comparison. Which is larger, 1 or 2 ? Choose, then provide that item's label.
### Response 2

----------
# procedure.text: Stability in cynomolgus monkey assessed as intrinsic clearance
# Format: ADME, cell-based, Macaca fascicularis, Hepatocyte
# measurement.setup: hepatocytes
metric: clearance (mL/min/kg)

a. CC(C)n1nnnc1[C@H](c1ccccc1F)N1CCN(c2cccc(Cl)c2)CC1
b. CC(C)n1nnnc1[C@@H](c1ccccc1F)N1CCN(c2cccc(Cl)c2)CC1
### Prompt Problem: Given the entries a and b , determine which has the lower reported clearance. Choose, then provide that item's label.
### Response b

----------
# procedure.text: Stability in human assessed as intrinsic clearance
# Format: ADME, cell-based, Hepatocyte
# measurement.setup: hepatocytes
metric: clearance (mL/min/kg)

P. CC(C)n1nnnc1[C@H](c1ccccc1F)N1CCN(c2cccc(Cl)c2)CC1
Q. CC(C)n1nnnc1[C@@H](c1ccccc1F)N1CCN(c2cccc(Cl)c2)CC1
### Prompt Problem: Given the entries P and Q , determine which has the lower reported clearance. Choose, then provide that item's label.
### Response P

----------
# procedure.text: Stability in human hepatocytes assessed as half life
# Type: ADME, cell-based, Hepatocyte
metric: half-life (min)

1. CC(C)n1nnnc1[C@H](c1ccccc1F)N1CCN(c2cccc(Cl)c2)CC1
2. CC(C)n1nnnc1[C@@H](c1ccccc1F)N1CCN(c2cccc(Cl)c2)CC1
### Prompt half-life comparison. Which is larger, 1 or 2 ? Choose, then provide that item's label.
### Response 1
(1: 37 min, 2: 16.9 min)

----------
Recorded EC50 values for a group of molecules are listed next.
# procedure.text: Effect on TRPML1 knockout HEK293 cells
# Assay type: functional, cell-based, Homo sapiens

molecule	EC50
Clc1cccc(N2CCN(C3c4ccccc4/C=C\CCCn4nnnc43)CC2)c1 (stereo unspecified)	> 48.8 µM

### Prompt Please give the measured EC50 for this molecule: "CC(C)n1nnnc1[C@H](c1ccccc1F)N1CCN(c2cccc(Cl)c2)CC1"
### Response > 48.8 µM

### Prompt Same thing, different molecule: Clc1cccc(N2CCN(C3c4ccccc4CCCCCn4nnnc43)CC2)c1 (stereo unspecified)
### Response > 48.8 µM

### Prompt Same thing, different molecule: Clc1cccc(N2CCN(C3c4ccccc4CCCCn4nnnc43)CC2)c1 (stereo unspecified)
### Response > 48.8 µM

### Prompt Same thing, different molecule: "CC(C)n1nnnc1[C@@H](c1ccccc1F)N1CCN(c2cccc(Cl)c2)CC1"
### Response > 48.8 µM

### Prompt Same thing, different molecule: "CN(C)S(=O)(=O)c1ccc(S(=O)(=O)Nc2cccc(Cl)c2N2CCCCC2)cc1"
### Response 1 µM

----------
# procedure.text: Stability in dog assessed as half life
# Assay type: ADME, cell-based, Canis lupus familiaris, Hepatocyte
# measurement.setup: hepatocytes
metric: half-life (min)

CC(C)n1nnnc1[C@@H](c1ccccc1F)N1CCN(c2cccc(Cl)c2)CC1 57
CC(C)n1nnnc1[C@H](c1ccccc1F)N1CCN(c2cccc(Cl)c2)CC1 46.3
